# assayedSystem: human P2X3 receptor (Homo sapiens (Human), UniProt P56373)
# Sequence (P56373 whole entry): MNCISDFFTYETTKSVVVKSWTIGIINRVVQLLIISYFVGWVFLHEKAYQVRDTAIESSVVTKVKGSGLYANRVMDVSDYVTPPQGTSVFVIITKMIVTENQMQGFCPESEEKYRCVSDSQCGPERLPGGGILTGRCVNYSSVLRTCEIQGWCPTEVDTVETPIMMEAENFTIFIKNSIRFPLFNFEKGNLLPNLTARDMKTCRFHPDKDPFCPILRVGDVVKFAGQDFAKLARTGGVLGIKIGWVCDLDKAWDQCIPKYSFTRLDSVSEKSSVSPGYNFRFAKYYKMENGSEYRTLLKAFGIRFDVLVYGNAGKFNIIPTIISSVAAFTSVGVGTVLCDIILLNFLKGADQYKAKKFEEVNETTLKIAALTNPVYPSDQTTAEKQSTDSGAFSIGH
# protocolDetails: P2X3 receptor inhibition, ATP-evoked Fluo-3 fluorescence (FDSS 3000)
# runConditions: C6BU-1 cell transfected with human P2X3 receptor gene
quantityMeasured: IC50 (nM)
Numbers only, in nM.

Answered examples (4):
• O=c1nc(Nc2ccc(OC(F)F)cc2)n(Cc2ccc(Cl)cc2)c(=O)n1CC(CO)CO = 154
• CC(C)Oc1ccc(/N=c2\[nH]c(=O)n(C[C@@H](C)C(=O)O)c(=O)n2Cc2ccc(Cl)cc2)cc1F = 30
• CC(C)Oc1ccc(Nc2nc(=O)n(CC(C)(C)CN)c(=O)n2Cc2ccc(Cl)cc2)cc1F = 66
• Cc1ccc(Cn2c(Nc3ccc(OC(C)C)cc3)nc(=O)n(C(C)C)c2=O)cc1F = 268

For every listed record, write down its IC50.
1. CCOC(=O)C1(Cn2c(=O)[nH]/c(=N\c3ccc(OC(C)C)c(Cl)c3)n(Cc3ccc(Cl)cc3)c2=O)CC1
2. CC(C)Oc1ccc(Nc2nc(=O)n(CCN(C)C)c(=O)n2Cc2ccc(Cl)cc2)cc1F

A)
[4, 180]

For every listed record, write down its IC50.
1. COC(=O)C(C)(C)Cn1c(=O)[nH]/c(=N\c2ccc(CN(C)C)c(Cl)c2)n(Cc2ccc(Cl)cc2)c1=O
2. CC(C)Oc1ccc(Nc2nc(=O)n(CCN3CCCCC3)c(=O)n2Cc2ccc(Cl)cc2)cc1F

A)
46
27
